Study system: PTP-1B (Homo sapiens)
Construct: PTP-1B (purified, 1 mg/mL) as a 1:250 dilution
Sequence (P18031 1-321 limits assumed): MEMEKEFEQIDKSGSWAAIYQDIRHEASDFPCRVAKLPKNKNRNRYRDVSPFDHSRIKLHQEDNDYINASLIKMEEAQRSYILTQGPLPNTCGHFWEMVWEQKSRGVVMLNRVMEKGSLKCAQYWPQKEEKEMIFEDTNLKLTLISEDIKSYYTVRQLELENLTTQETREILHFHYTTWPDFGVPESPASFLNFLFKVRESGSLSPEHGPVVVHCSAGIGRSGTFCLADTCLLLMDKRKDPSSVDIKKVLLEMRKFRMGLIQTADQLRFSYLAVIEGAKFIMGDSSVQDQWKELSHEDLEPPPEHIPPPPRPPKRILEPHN
Assay remarks: pNPP assay for tyrosine phosphatase inhibitory activity
Type: biochemical
Condition: Table 1; pNPP substrate 10 mM, 30° C., 10 minutes, absorbance at 405 nm
pIC50: −log10 of the molar value.
Measure: pIC50

[[record]]
molecule = "CCOP(=O)(OCC)C(F)(F)c1ccc(CN(c2ccc(Cl)c(Cl)c2)c2ncc(-c3ccc(Oc4ccc(C(=O)OC)cc4)cc3)o2)cc1Br [Example 7]"
measure = "pIC50"
observed_value = "4.00 to 5.00"

[[record]]
molecule = "COC(=O)c1ccc(Oc2ccc(-c3cnc(N(Cc4ccc(C(F)(F)P(=O)(O)O)c(Br)c4)c4ccc(Cl)c(Cl)c4)o3)cc2)cc1 [Example 10]"
measure = "pIC50"
observed_value = "5.00 to 6.00"

[[record]]
molecule = "O=C(O)c1ccc(-c2cnc(N(Cc3ccc(C(F)(F)P(=O)(O)O)c(Br)c3)c3ccc(Cl)c(Cl)c3)o2)cc1 [Example 3]"
measure = "pIC50"
observed_value = "> 7.00"

[[record]]
molecule = "O=C(O)c1ccc(CN(Cc2ccc(C(F)(F)P(=O)(O)O)cc2)c2nnc(-c3cccc(Oc4ccccc4)c3)o2)cc1"
measure = "pIC50"
observed_value = "5.00 to 6.00"

[[record]]
molecule = "O=C(O)c1ccc(Oc2ccc(-c3cnc(N(Cc4ccc(C(F)(F)P(=O)(O)O)c(Br)c4)c4ccc(Cl)c(Cl)c4)o3)cc2)cc1 [Example 12]"
measure = "pIC50"
observed_value = "6.30 to 7.00"

[[record]]
molecule = "CCOP(=O)(OCC)C(F)(F)c1ccc(CN(c2ccc(Cl)c(Cl)c2)c2ncc(-c3ccc(S(C)(=O)=O)cc3)o2)cc1Br [Example 8]"
measure = "pIC50"
observed_value = "4.00 to 5.00"

[[record]]
molecule = "COC(=O)c1ccccc1-c1cccc(-c2cnc(N(Cc3ccc(C(F)(F)P(=O)(O)O)c(Br)c3)c3ccc(Cl)c(Cl)c3)o2)c1 [Example 19]"
measure = "pIC50"
observed_value = "5.00 to 6.00"

[[record]]
molecule = "O=C(O)C(Oc1cccc(-c2cnc(N(Cc3ccc(C(F)(F)P(=O)(O)O)c(Br)c3)c3ccc(Cl)c(Cl)c3)o2)c1)c1ccccc1 (stereo not shown) [Example 16]"
measure = "pIC50"
observed_value = "> 7.00"

[[record]]
molecule = "COC(=O)c1ccc(-c2cnc(N(Cc3ccc(C(F)(F)P(=O)(O)O)c(Br)c3)c3ccccc3)o2)cc1 [Example 4]"
measure = "pIC50"
observed_value = "5.00 to 6.00"

[[record]]
molecule = "COP(=O)(O)C(F)(F)c1ccc(CN(c2ccc(Cl)c(Cl)c2)c2ncc(-c3ccc(S(C)(=O)=O)cc3)o2)cc1Br"
measure = "pIC50"
observed_value = "4.00 to 5.00"

[[record]]
molecule = "CS(=O)(=O)c1ccc(-c2cnc(N(Cc3ccc(C(F)(F)C(=O)O)cc3)c3ccc(Cl)c(Cl)c3)o2)cc1"
measure = "pIC50"
observed_value = "4.00 to 5.00"

[[record]]
molecule = "COC(=O)C(Oc1cccc(-c2cnc(N(Cc3ccc(C(F)(F)P(=O)(O)O)c(Br)c3)c3ccc(Cl)c(Cl)c3)o2)c1)c1ccccc1 (stereo not shown) [Example 13]"
measure = "pIC50"
observed_value = "5.00 to 6.00"

[[record]]
molecule = "CCOP(=O)(O)C(F)(F)c1ccc(CN(c2ccc(Cl)c(Cl)c2)c2ncc(-c3ccc(S(C)(=O)=O)cc3)o2)cc1Br [Example 9]"
measure = "pIC50"
observed_value = "4.00 to 5.00"

